Tested on: PXR homodimer (NR concentration 270 nM)
Assay: PBM binding z-score (relative to random genomic background probes); higher = stronger binding; sequences stand for … in GC…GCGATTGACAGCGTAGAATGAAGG
Label scheme for PBM binding z-score: lower than 1 is Criterion not met, 1 and above is Criterion met.

Illustrative cases are given below, each with its answer.
GGGACTGGGGCATCAGCAGGTTACCATAACTTAA: Criterion not met
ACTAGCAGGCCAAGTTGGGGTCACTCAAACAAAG: Criterion met
CTACCAAGGTGCACAAGGTCGTTGATTACTATTC: Criterion met
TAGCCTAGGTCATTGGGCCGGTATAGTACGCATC: Criterion not met

Is the recorded value of PBM binding z-score equal to or greater than 1 for this sequence? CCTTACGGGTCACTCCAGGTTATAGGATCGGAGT
Criterion not met

What would you report for GCTAGTTGGTCACTAAAAGGTCACACACCGGTCG ?
Criterion met
